system: tumor endothelial cells (LL/2 lung cancer tumor); assay: Lung LL2 ex vivo model of tumor angiogenesis; assay type: cell-based, mouse; conditions: Mus musculus, Endothelial cell, 48 h, read-out: Cell death
The following molecules are listed with their measured cytotoxicity at 40 µM values.
Give just the numeric value; % need not be written.

INSERT INTO assay_data (molecule, result_value) VALUES
  ('CCc1ccc(S(=O)(=O)c2cnc3ccc(OC(F)(F)F)cc3c2N2CCC(N3CCCC3)CC2)cc1 [compound 46]', 100);

Ask: Which cytotoxicity at 40 µM is listed for CCCCN(CCCC)c1c(S(=O)(=O)c2ccc(OC)c(OC)c2)cnc2ccc(OC(F)(F)F)cc12 [compound 74] ?
Reply: 60

Ask: Fill blank: measured cytotoxicity at 40 µM of the molecule CCCCN(CCCC)c1c(S(=O)(=O)c2ccc(CC)cc2)cnc2ccc(OC(F)(F)F)cc12 [compound 87] is ____.
Reply: 0

Ask: May I ask what cytotoxicity at 40 µM has been recorded for CCCCOc1ccc(S(=O)(=O)c2cnc3ccc([S+](C)[O-])cc3c2N2CCC(N3CCCN(C)CC3)CC2)cc1 (stereo not drawn) [compound 241] ?
Reply: 40

Ask: For the molecule shown here, COc1ccc(S(=O)(=O)c2cnc3ccc(OC(F)(F)F)cc3c2NN2CCN(C)CC2)cc1 [compound 85] , give the reported cytotoxicity at 40 µM.
Reply: 80

Ask: Using the record for CCN(CC)CCNC(=O)c1ccc2ncc(S(=O)(=O)c3ccc(OC)cc3)c(N3CCCN(C)CC3)c2c1 [compound 166] , report its cytotoxicity at 40 µM.
Reply: 10

Ask: I'd like to know its cytotoxicity at 40 µM. The molecule in question is CCOC(=O)c1ccc2ncc(S(=O)(=O)c3ccc(OC)cc3)c(NN3CCN(C)CC3)c2c1 [compound 225]
Reply: 40

Ask: What value of cytotoxicity at 40 µM has been recorded for this entry: CCOC(=O)c1ccc2ncc(S(=O)(=O)c3ccc(OC)cc3)c(N3CCC(N4CCCCCC4)CC3)c2c1 [compound 173]
Reply: 50

Ask: Which cytotoxicity at 40 µM value is on record for CCCCOc1ccc(S(=O)(=O)c2cnc3ccc(C(=O)OCC)cc3c2N2CCS(=O)(=O)CC2)cc1 [compound 196] ?
Reply: 30

Ask: Report cytotoxicity at 40 µM for CCCCOc1ccc(S(=O)(=O)c2cnc3ccc([S+](C)[O-])cc3c2N2CCC(N3CCC(N4CCCCC4)CC3)CC2)cc1 (stereo not drawn) [compound 237] please.
Reply: 100

Ask: Reported cytotoxicity at 40 µM for COc1ccc(S(=O)(=O)c2cnc3ccc([N+](=O)[O-])cc3c2NN2CCN(C)CC2)cc1 [compound 94] : what is it?
Reply: 20

Ask: So what's the measured cytotoxicity at 40 µM for this one? CCCCOc1ccc(S(=O)(=O)c2cnc3ccc([S+](C)[O-])cc3c2N2CCC(N3CCOCC3)CC2)cc1 (stereo not drawn) [compound 235]
Reply: 10

Ask: For the molecule CCN(CC)CCN(CC)c1c(S(=O)(=O)c2ccc(OC)cc2)cnc2cc(OC)c(OC)cc12 [compound 296] , what cytotoxicity at 40 µM is on record?
Reply: 20

Ask: Recorded cytotoxicity at 40 µM for CCCCOc1ccc(S(=O)(=O)c2cnc3ccc([S+](C)[O-])cc3c2N2CCCN(CCN3CCCC3)CC2)cc1 (stereo not drawn) [compound 210] , please?
Reply: 50

Ask: Give the measured cytotoxicity at 40 µM of CCOC(=O)C1CCN(c2c(S(=O)(=O)c3ccc(CC)cc3)cnc3ccc(OC(F)(F)F)cc23)CC1 [compound 47] .
Reply: 50
